Biological target: T1, human vascular endothelial growth factor receptor-2 Fc chimera (KDR-Fc) (human, UniProt P35968 20-764)
T1 construct: range 1-764; also called human VEGFR-2; VEGF-R2-Fc; not shown: human IgG1 Fc
T1 sequence (P35968 20-764 limits assumed, change not shown, form in doubt): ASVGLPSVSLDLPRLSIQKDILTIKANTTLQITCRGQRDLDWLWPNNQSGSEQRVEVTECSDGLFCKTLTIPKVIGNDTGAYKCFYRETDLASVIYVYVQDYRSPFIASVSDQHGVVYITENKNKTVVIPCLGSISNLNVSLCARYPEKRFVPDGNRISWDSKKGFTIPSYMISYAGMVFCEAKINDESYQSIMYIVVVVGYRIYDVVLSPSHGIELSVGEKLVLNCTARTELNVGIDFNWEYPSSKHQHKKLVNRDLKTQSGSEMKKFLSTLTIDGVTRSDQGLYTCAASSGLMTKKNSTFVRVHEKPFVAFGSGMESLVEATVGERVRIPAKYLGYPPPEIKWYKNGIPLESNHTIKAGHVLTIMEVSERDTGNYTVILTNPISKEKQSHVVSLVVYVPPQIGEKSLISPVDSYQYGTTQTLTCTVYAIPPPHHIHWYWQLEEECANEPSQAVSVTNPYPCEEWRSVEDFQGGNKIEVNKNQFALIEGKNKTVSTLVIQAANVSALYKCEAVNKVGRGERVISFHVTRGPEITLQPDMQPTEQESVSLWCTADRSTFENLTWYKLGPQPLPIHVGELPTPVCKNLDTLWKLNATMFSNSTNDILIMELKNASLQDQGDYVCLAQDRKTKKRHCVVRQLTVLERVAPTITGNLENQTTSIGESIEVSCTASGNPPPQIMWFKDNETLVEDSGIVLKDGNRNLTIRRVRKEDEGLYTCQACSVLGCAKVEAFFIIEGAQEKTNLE
Assay: radioactive equilibrium binding, 1 nM KDR-Fc
measuredAttribute: Binding to 1 nM KDR, % (%)
Write the answer as a number in %, unit excluded.

{"binder": "3′H10 PR4 (designed binder, Del 1-8) EVVAATPTSLLISWRHPHFPTRYYRITYGETGGNSPVQEFTVPLQPPTATISGLKPGVDYTITGYAVTWAWNDHELMTPISINYRT", "unitAnnotation": "%", "Binding to 1 nM KDR, %": 14}

Kindly review the next binder as well.
Reported Binding to 1 nM KDR, % ( 2′C6-PR4 (designed binder, WT N-terminus) VSDVPRDLEVVAATPTSLLISWRHPHFPTRYYRITYGETGGNSPVQEFTVPLQPPTATISGLKPGVDYTITGYAVTMGFMAHELMVPISINYRT ) = 16
